Attribution: patent US20250268826A1

Experiment: LNP size and polydispersity index (PDI) by dynamic light scattering (DLS)
Type: physicochemical
Conditions: Table 9; LNP Lipid:DSPC:Cholesterol:DMG-PEG2k 50:10:38.5:1.5 mol %; hEPO mRNA; N:P 6
assay.metric: Size (nm)

Would you please look over these solved cases?
[[record]]
compound = "CCCCCCCCC(CCCCCC)C(=O)OCCN(CCOC(=O)C(CCCCCC)CCCCCCCC)C(=O)CN1CCOCC1.Cl (centres unmarked) [Compound 960e]"
assay_metric = "Size"
reported_result = 73.3

[[record]]
compound = "CCCCCCCCC(CCCCCC)C(=O)OCCN(CCOC(=O)C(CCCCCC)CCCCCCCC)C(=O)CN(CC)CCC.Cl (single isomer, unassigned) [Compound 960a]"
assay_metric = "Size"
reported_result = 77.4

[[record]]
compound = "CCCCCCCCC(CCCCCC)C(=O)OCCN(CCOC(=O)C(CCCCCC)CCCCCCCC)C(=O)CNCCC.Cl (centres unmarked) [Compound 968]"
assay_metric = "Size"
reported_result = 76.7

[[record]]
compound = "CCCCCCCCCC(CCCCCCCCC)C(=O)OCCN(CCOC(=O)C(CCCCCCCCC)CCCCCCCCC)C(=O)CN(C)C.Cl [Compound 963]"
assay_metric = "Size"
reported_result = 76.1

[[record]]
compound = "CCCCCCCCC(CCCCCC)C(=O)OCCN(CCOC(=O)C(CCCCCC)CCCCCCCC)C(=O)CNCC.Cl (centres unmarked) [Compound 965]"
assay_metric = "Size"
reported_result = 76.3

[[record]]
compound = "CCCCCCCCC(CCCCCC)C(=O)OCCN(CCOC(=O)C(CCCCCC)CCCCCCCC)C(=O)CNC.Cl (centres unmarked) [Compound 964]"
assay_metric = "Size"
reported_result = 73.9


a: CCCCCCCCC(CCCCCC)C(=O)OCCN(CCOC(=O)C(CCCCCC)CCCCCCCC)C(=O)CN(CC)CCC.Cl (single isomer, unassigned) [Compound 960b]
b: CCCCCCCCC(CCCCCC)C(=O)OCCN(CCOC(=O)C(CCCCCC)CCCCCCCC)C(=O)CN(C)CC.Cl (centres unmarked) [Compound 966]
Q: Return label of the item with the larger Size. Candidates: a , b . State your choice using its label.
A: b
